protein stability index listing for selected variants.
B1: TRIM55 (parent)
chain: FQASNPYLPTRGGTTMASGGRFRC

- Variants of: B1
- Test name: protein stability index of a GFP-peptide fusion (GPS, HEK-293T) (PSI 1-6); higher = more stable;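 note: lentivirally expressed fusions sorted by FACS into six bins by GFP to DsRed ratio, PSI derived from sequencing read proportions per bin multiplied by bin number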
- Settings: c terminus: a fixed tail appended
Answer field: number only, no words.

Answered cases to consult:
Variant code: P9E
protein stability index: 2.17
//
Variant code: Y7F
protein stability index: 2.43

Enquiry: Look up protein stability index for this variant: Y7A
Return: 3.52

Enquiry: How about M16S ?
Return: 2.67

Enquiry: How about A17M ?
Return: 1.93

Enquiry: How about G19F ?
Return: 1.91
